Species on record: Rattus norvegicus
Experiment: Open TG-GATES - Regimen: Daily Repeat
Format: toxicity, organism-based, Sprague-Dawley
Parameters: regimen Daily Repeat, gender Male, age 6 weeks
Details: in vivo, po, 1000 mg/kg, […], tissue Liver, route gavage, dose level High, time 7 day
Property Label: LIVER
The reply should consist of the numeric value with the unit placed after it.

Worked cases, answers included:
Molecule: CNC(=C[N+](=O)[O-])NCCSCc1ccc(CN(C)C)o1
Property Label: LIVER
Obs Value: 12.3 g
--
Molecule: O=C(OC[C@H]1O[C@@H](OC(=O)c2cc(O)c(O)c(OC(=O)c3cc(O)c(O)c(O)c3)c2)[C@H](OC(=O)c2cc(O)c(O)c(OC(=O)c3cc(O)c(O)c(O)c3)c2)[C@@H](OC(=O)c2cc(O)c(O)c(OC(=O)c3cc(O)c(O)c(O)c3)c2)[C@@H]1OC(=O)c1cc(O)c(O)c(OC(=O)c2cc(O)c(O)c(O)c2)c1)c1cc(O)c(O)c(OC(=O)c2cc(O)c(O)c(O)c2)c1
Property Label: LIVER
Obs Value: 12.1 g
--
Molecule: Cc1nnc2n1-c1ccc(Cl)cc1C(c1ccccc1Cl)=NC2
Property Label: LIVER
Obs Value: 12.4 g
--
Molecule: CCOc1ccc(NC(C)=O)cc1
Property Label: LIVER
Obs Value: 11.9 g

Query block: Requested read-out: LIVER. Entry: COC(=O)C1=C(C)NC(C)=C(C(=O)OC)C1c1ccccc1[N+](=O)[O-]
Result block: 12.1 g

Query block: Param item: CN/C(=N/CCSCc1nc[nH]c1C)NC#N
Result block: 12.9 g

----------
Species: Rattus norvegicus
Assay: Open TG-GATES - Regimen: Single
Assay type: toxicity, organism-based, Sprague-Dawley
Parameters: regimen Single, gender Male, age 6 weeks
Details: in vivo, po, 0 mg/kg, 6 h, tissue Plasma, route gavage, dose level Control
Each entry below carries its reported AST.
The reply should consist of the numeric value with the unit placed after it.

Query block: Requested read-out: AST. Entry: CNC(=C[N+](=O)[O-])NCCSCc1ccc(CN(C)C)o1
Result block: 64.6 IU/L

----------
Species on record: Rattus norvegicus
Experiment: Open TG-GATES - Regimen: Daily Repeat
Assay type: toxicity, organism-based, Sprague-Dawley
Design: regimen Daily Repeat, gender Male, age 6 weeks
Conditions: in vivo, po, 0 mg/kg, […], tissue Plasma, route gavage, dose level Control, time 28 day
Each entry below carries its reported IP.
The reply should consist of the numeric value with the unit placed after it.

Worked cases, answers included:
Compound: O=C(OC[C@H]1O[C@@H](OC(=O)c2cc(O)c(O)c(OC(=O)c3cc(O)c(O)c(O)c3)c2)[C@H](OC(=O)c2cc(O)c(O)c(OC(=O)c3cc(O)c(O)c(O)c3)c2)[C@@H](OC(=O)c2cc(O)c(O)c(OC(=O)c3cc(O)c(O)c(O)c3)c2)[C@@H]1OC(=O)c1cc(O)c(O)c(OC(=O)c2cc(O)c(O)c(O)c2)c1)c1cc(O)c(O)c(OC(=O)c2cc(O)c(O)c(O)c2)c1
IP: 7.1 mg/dL
//
Compound: Cc1nnc2n1-c1ccc(Cl)cc1C(c1ccccc1Cl)=NC2
IP: 6.3 mg/dL
//
Compound: CN1C(=O)CCS(=O)(=O)C1c1ccc(Cl)cc1 (configuration not stated)
IP: 6 mg/dL
//
Compound: COC(=O)C1=C(C)NC(C)=C(C(=O)OC)C1c1ccccc1[N+](=O)[O-]
IP: 6.1 mg/dL
//
Compound: Brc1ccccc1
IP: 6 mg/dL

Query block: Requested read-out: IP. Entry: CNC(=C[N+](=O)[O-])NCCSCc1ccc(CN(C)C)o1
Result block: 6.6 mg/dL

Query block: Param item: CN/C(=N/CCSCc1nc[nH]c1C)NC#N
Result block: 6.6 mg/dL

----------
Each entry below carries its reported GLC.
Organism: Rattus norvegicus
Experiment: Open TG-GATES - Regimen: Single
Assay type: toxicity, organism-based, Sprague-Dawley
Design: regimen Single, gender Male, age 6 weeks
Conditions: in vivo, po, 0 mg/kg, 3 h, tissue Plasma, route gavage, dose level Control
The reply should consist of the numeric value with the unit placed after it.

Worked cases, answers included:
Compound: CN(C)CCC(c1ccc(Cl)cc1)c1ccccn1 (stereo not given)
Property Label: GLC
Obs Value: 179 mg/dL
//
Compound: CN/C(=N/CCSCc1nc[nH]c1C)NC#N
Property Label: GLC
Obs Value: 189 mg/dL
//
Compound: CN1C(=O)CCS(=O)(=O)C1c1ccc(Cl)cc1 (stereo not given)
Property Label: GLC
Obs Value: 182.2 mg/dL
//
Compound: Brc1ccccc1
Property Label: GLC
Obs Value: 186.4 mg/dL

Query block: Requested read-out: GLC. Entry: CS(=O)(=O)O.Cc1ccc(NC(=O)c2ccc(CN3CCN(C)CC3)cc2)cc1Nc1nccc(-c2cccnc2)n1 [IMATINIB MESYLATE]
Result block: 184 mg/dL

Query block: Param item: CCOc1ccc(NC(C)=O)cc1
Result block: 169 mg/dL

Query block: Param item: Cc1nnc2n1-c1ccc(Cl)cc1C(c1ccccc1Cl)=NC2
Result block: 179.2 mg/dL

Query block: Param item: Nc1c2c(nc3ccccc13)CCCC2
Result block: 189.6 mg/dL

Query block: Param item: NC1=NC(=O)C(c2ccccc2)O1 (stereo not given)
Result block: 175.2 mg/dL

Query block: Param item: CNC(=C[N+](=O)[O-])NCCSCc1ccc(CN(C)C)o1
Result block: 188.2 mg/dL

----------
Species: Rattus norvegicus
Assay: Open TG-GATES - Regimen: Single
Format: toxicity, organism-based, Sprague-Dawley
Set-up: regimen Single, gender Male, age 6 weeks
Settings: in vivo, po, 100 mg/kg, 3 h, tissue Plasma, route gavage, dose level Low
Binarize K at 4 meq/L; below is Condition met, at or above is Condition not met.

Here's what some known entries look like.
Compound: COC(=O)C1=C(C)NC(C)=C(C(=O)OC)C1c1ccccc1[N+](=O)[O-] [NIFEDIPINE]
Category: Condition not met
//
Compound: CNC(=C[N+](=O)[O-])NCCSCc1ccc(CN(C)C)o1 [RANITIDINE]
Category: Condition met
//
Compound: O=C(OC[C@H]1O[C@@H](OC(=O)c2cc(O)c(O)c(OC(=O)c3cc(O)c(O)c(O)c3)c2)[C@H](OC(=O)c2cc(O)c(O)c(OC(=O)c3cc(O)c(O)c(O)c3)c2)[C@@H](OC(=O)c2cc(O)c(O)c(OC(=O)c3cc(O)c(O)c(O)c3)c2)[C@@H]1OC(=O)c1cc(O)c(O)c(OC(=O)c2cc(O)c(O)c(O)c2)c1)c1cc(O)c(O)c(OC(=O)c2cc(O)c(O)c(O)c2)c1 [TANNIC ACID]
Category: Condition not met

Now consider the entry below.
Query block: I'd appreciate it if you could check whether Cc1nnc2n1-c1ccc(Cl)cc1C(c1ccccc1Cl)=NC2 [TRIAZOLAM] has K smaller than 4 meq/L.
Result block: Condition not met

----------
Species: Rattus norvegicus
Experiment: Open TG-GATES - Regimen: Single
Type: toxicity, organism-based, Sprague-Dawley
Set-up: regimen Single, gender Male, age 6 weeks
Conditions: in vivo, po, 1000 mg/kg, 6 h, tissue Plasma, route gavage, dose level High
Each entry below carries its reported PL.
The reply should consist of the numeric value with the unit placed after it.

Compound: CN/C(=N/CCSCc1nc[nH]c1C)NC#N [CIMETIDINE]
Obs Value: 153.4 mg/dL

Query block: Requested read-out: PL. Entry: O=C(OC[C@H]1O[C@@H](OC(=O)c2cc(O)c(O)c(OC(=O)c3cc(O)c(O)c(O)c3)c2)[C@H](OC(=O)c2cc(O)c(O)c(OC(=O)c3cc(O)c(O)c(O)c3)c2)[C@@H](OC(=O)c2cc(O)c(O)c(OC(=O)c3cc(O)c(O)c(O)c3)c2)[C@@H]1OC(=O)c1cc(O)c(O)c(OC(=O)c2cc(O)c(O)c(O)c2)c1)c1cc(O)c(O)c(OC(=O)c2cc(O)c(O)c(O)c2)c1 [TANNIC ACID]
Result block: 113.6 mg/dL

Query block: Param item: Cc1nnc2n1-c1ccc(Cl)cc1C(c1ccccc1Cl)=NC2 [TRIAZOLAM]
Result block: 162.8 mg/dL

Query block: Param item: COC(=O)C1=C(C)NC(C)=C(C(=O)OC)C1c1ccccc1[N+](=O)[O-] [NIFEDIPINE]
Result block: 148.2 mg/dL

Query block: Param item: CNC(=C[N+](=O)[O-])NCCSCc1ccc(CN(C)C)o1 [RANITIDINE]
Result block: 151.4 mg/dL

----------
Species: Rattus norvegicus
Test: Open TG-GATES - Regimen: Daily Repeat
Format: toxicity, organism-based, Sprague-Dawley
Design: regimen Daily Repeat, gender Male, age 6 weeks
Conditions: in vivo, po, 300 mg/kg, […], tissue Blood, route gavage, dose level Middle, time 28 day
Binarize MCV at 60 fL; below is t, at or above is f.

Here's what some known entries look like.
Compound: COC(=O)C1=C(C)NC(C)=C(C(=O)OC)C1c1ccccc1[N+](=O)[O-] [NIFEDIPINE]
Category: f
--
Compound: CCOc1ccc(NC(C)=O)cc1 [PHENACETIN]
Category: t
--
Compound: Cc1nnc2n1-c1ccc(Cl)cc1C(c1ccccc1Cl)=NC2 [TRIAZOLAM]
Category: t
--
Compound: CNC(=C[N+](=O)[O-])NCCSCc1ccc(CN(C)C)o1 [RANITIDINE]
Category: t

Query block: I'd appreciate it if you could check whether CN/C(=N/CCSCc1nc[nH]c1C)NC#N [CIMETIDINE] has MCV smaller than 60 fL.
Result block: t
